The entries below pair molecules with IC50 values for GST-Xa-hAAK1 (Homo sapiens (Human), UniProt Q2M2I8), as found in several publications.
Mark true only for IC50 values smaller than 2 nM; exact matches and larger values are false.

CC(C)C[C@](C)(N)COc1ncc(-c2ccnc3cc(F)ccc23)cc1Cl
true
CC(C)C[C@](C)(N)COc1ccc2c(c1)COc1cnc(F)cc1-2
false
CC(C)CCC(=O)Nc1cc(-c2ccc(OC[C@@](C)(N)CC(C)C)c(C(F)(F)F)c2)ccn1
true

Task: A record lists "CC(C)C[C@](C)(N)COc1ccc(-c2ccnc(C(F)F)c2)cc1C(F)F" . Is its IC50 below 2 nM?
Result: true

Task: A record lists "Cc1cc(-c2ccc(OC[C@@](C)(N)CC(C)C)c(CF)n2)ccn1" . Is its IC50 below 2 nM?
Result: false

Task: A record lists "CC(=O)Nc1cc(-c2ccc(OC[C@@H](N)CC(C)C)c(F)c2)ccn1" . Is its IC50 below 2 nM?
Result: false
